- Target System: T1, ROR1 naturally expressed on human tumor cell lines (A549, Jeko-1, SW620, PA-1) (human, UniProt Q01973 30-937)
- T1 construct: whole, on cells; also called cells expressing ROR1
- T1 sequence (Q01973 30-937): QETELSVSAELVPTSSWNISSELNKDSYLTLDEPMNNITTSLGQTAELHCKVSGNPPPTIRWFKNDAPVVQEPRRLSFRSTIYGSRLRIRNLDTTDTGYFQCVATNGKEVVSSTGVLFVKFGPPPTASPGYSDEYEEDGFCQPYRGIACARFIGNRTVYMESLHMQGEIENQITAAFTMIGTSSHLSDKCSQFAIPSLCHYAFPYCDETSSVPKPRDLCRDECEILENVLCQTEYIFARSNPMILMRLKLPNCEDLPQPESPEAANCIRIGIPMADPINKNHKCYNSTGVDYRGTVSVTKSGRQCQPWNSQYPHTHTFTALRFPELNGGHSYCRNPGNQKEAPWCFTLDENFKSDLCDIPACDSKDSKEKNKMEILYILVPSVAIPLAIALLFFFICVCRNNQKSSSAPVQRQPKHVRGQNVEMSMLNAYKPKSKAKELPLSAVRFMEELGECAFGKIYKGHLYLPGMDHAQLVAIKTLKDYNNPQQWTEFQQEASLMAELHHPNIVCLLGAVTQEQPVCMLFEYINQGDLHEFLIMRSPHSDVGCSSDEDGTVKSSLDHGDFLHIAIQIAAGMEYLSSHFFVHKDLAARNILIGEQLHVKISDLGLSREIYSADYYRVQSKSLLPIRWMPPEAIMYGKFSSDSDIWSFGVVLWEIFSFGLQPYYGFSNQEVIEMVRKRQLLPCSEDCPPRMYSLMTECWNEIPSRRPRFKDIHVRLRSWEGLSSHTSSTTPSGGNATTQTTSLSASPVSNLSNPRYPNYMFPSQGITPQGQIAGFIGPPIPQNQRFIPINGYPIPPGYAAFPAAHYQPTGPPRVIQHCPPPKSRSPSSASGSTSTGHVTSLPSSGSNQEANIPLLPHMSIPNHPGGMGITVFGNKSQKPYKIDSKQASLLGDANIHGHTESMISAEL
- Assay Text: FACS on Jeko-1 cells naturally expressing ROR1
Listed below: EC50 values for each entry.
Field: numeric (nM). Do not append units.

Below: 3 binders and their reported EC50.
Binder	Units Text	EC50
hz135A2B10-1.1 (antibody, human IgG1, kappa, V domains shown, Humanized, human IgG1/kappa) VH: QVQLVESGGGLVQPGGSLRLSCAASGFAFSTYGMAWVRQAPGKGLEWVASIHKGGFSTYYPDNVKGRFTISRDNAKNSLYLQMNSLRAEDTAVYYCARHDWDGAMDYWGQGTLVTVSS VL: DIQMTQSPSSLSASVGDRVTITCKASQDINSYLNWYQQKPGKAPKTLIYRANRLVDGVPSRFSGSGSGQDYTLTISSLQPEDFATYYCLQFDEFPYTFGQGTKVEIKR	nM	0.015
hz135A2B10-1.3 (antibody, human IgG1, kappa, V domains shown, Humanized, human IgG1/kappa) VH: QVQLVESGGGLVQPGGSLRLSCAASGFAFSTYGMAWVRQAPGKRLEWVASIHKGGFSTYYPDNVKGRFTISRDNDKNSLYLQMNSLRAEDTAVYYCIRHDWDGAMDYWGQGTLVTVSS VL: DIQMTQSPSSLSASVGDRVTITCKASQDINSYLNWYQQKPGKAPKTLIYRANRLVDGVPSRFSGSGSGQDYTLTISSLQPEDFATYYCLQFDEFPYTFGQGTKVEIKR	nM	0.024
UC-961 (antibody, V domains shown) VH: QVQLQESGPGLVKPSQTLSLTCTVSGYAFTAYNIHWVRQAPGQGLEWMGSFDPYDGGSSYNQKFKDRLTISKDTSKNQVVLTMTNMDPVDTATYYCARGWYYFDYWGHGTLVTVSS VL: DIVMTQTPLSLPVTPGEPASISCRASKSISKYLAWYQQKPGQAPRLLIYSGSTLQSGIPPRFSGSGYGTDFTLTINNIESEDAAYYFCQQHDESPYTFGEGTKVEIK	nM	0.019

Could you now consider this next binder?
For this binder ( hz135A2B10-1.2 (antibody, human IgG1, kappa, V domains shown, Humanized, human IgG1/kappa) VH: QVQLVESGGGLVQPGGSLRLSCAASGFAFSTYGMAWVRQAPGKGLEWVASIHKGGFSTYYPDNVKGRFTISRDNDKNSLYLQMNSLRAEDTAVYYCIRHDWDGAMDYWGQGTLVTVSS VL: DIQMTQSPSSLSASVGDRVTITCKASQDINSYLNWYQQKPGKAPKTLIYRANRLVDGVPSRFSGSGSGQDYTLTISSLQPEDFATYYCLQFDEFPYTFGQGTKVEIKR ), measured EC50 is 0.022

Every entry's value here was drawn from patent EP4772535A1.
